- MEASUREMENT_PROTOCOL: small-molecule binders of probe aNOTCH2, primary screen, biochemical, small-molecule microarray, 635/667 nm fluorescence (AID 1121);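 note: score merges feature fluorescence read at 667 nm with its signal to noise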
- MEASUREMENT_SETUP: higher = more signal
MEASURED_ATTRIBUTE: composite z-score

COMPOUND	MEASURED_ATTRIBUTE	RESULT
COC(=O)[C@H](C)NC(=O)CCC1CC(OC(=O)NCc2cccc3ccccc23)CC2(CCCC(COC(=O)NCc3cccc(C(F)(F)F)c3)O2)O1 (some centres undefined)	composite z-score	-0.0846

Look at this compound and give its reported composite z-score. CCOC(=O)[C@H](Cc1ccccc1)NC(=O)CCC1CC(OC(=O)NCc2cccc3ccccc23)CC2(CCCC(COC(=O)NCCc3ccc(Cl)cc3)O2)O1 (some centres undefined)
-0.203

Next compound: `O=C1C[C@@H](O)[C@@H](O)[C@@H]2[C@@H]3C(=O)N(Cc4ccccc4)C(=O)[C@@H]3CC[C@H]12`
-0.107

Repeat with `CCOC(=O)CCN1C(=O)[C@H]2[C@H]3[C@H](O)[C@H](O)CC(=NNC(=O)OCC)[C@H]3CC[C@H]2C1=O`
-0.145
